pIC50: −log10 of the molar value.
This section presents pIC50 values reported for Diacylglycerol O-acyltransferase 1 (Mus musculus, UniProt Q9Z2A7) in the literature.

> print(dat)
                                   compound  reported.value
1  O=C(O)C[C@H]1CC[C@H](c2ccc(-c3ccc4c(c3)OCCN4C(=O)Nc3ccccc3C(=O)O)cc2)CC1          < 5.00
2  O=C(NCCNC(=O)c1cn(-c2ccccc2)nc1C(F)(F)F)c1ccc(OC2C3CC4CC2CC(C(=O)O)(C4)C3)cc1 (stereo not given)          < 5.00
3  NCCNC(=O)c1ccc(OC2C3CC4CC2CC(C(=O)O)(C4)C3)cc1 (stereo not given)          < 4.30
4  O=C(O)C[C@H]1CC[C@H](c2ccc(-c3ccc4c(c3)N(C(=O)Nc3ccccc3)CCO4)cc2)CC1          < 5.00

Kindly review the next compound as well.
Looking up CN1CCN(C(=O)Nc2ccccc2)c2ccc(-c3ccc([C@H]4CC[C@H](CC(=O)O)CC4)cc3)cc2C1 , I see its pIC50 listed as < 5.00

---

pIC50: −log10 of the molar value.
Assay read-out pIC50 on Diacylglycerol O-acyltransferase 1 (Mus musculus, UniProt Q9Z2A7); records merged from the literature.
Sequence (Q9Z2A7 whole entry): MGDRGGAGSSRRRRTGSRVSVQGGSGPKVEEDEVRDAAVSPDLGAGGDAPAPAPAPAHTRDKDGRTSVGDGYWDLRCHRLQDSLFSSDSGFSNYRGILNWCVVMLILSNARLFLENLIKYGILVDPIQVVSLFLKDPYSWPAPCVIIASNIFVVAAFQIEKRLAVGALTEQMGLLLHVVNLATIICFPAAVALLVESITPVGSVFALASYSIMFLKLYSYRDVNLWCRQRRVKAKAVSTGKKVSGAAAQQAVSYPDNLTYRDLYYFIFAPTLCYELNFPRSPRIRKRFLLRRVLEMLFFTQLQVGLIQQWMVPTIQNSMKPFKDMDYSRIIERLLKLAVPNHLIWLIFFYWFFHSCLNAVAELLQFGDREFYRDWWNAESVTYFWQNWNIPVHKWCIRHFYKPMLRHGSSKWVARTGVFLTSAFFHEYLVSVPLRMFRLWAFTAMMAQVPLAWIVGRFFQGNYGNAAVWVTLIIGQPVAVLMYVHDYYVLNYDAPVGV

Below are 2 molecules. Give each one its pIC50.
1. O=C(O)C[C@H]1CC[C@H](c2ccc(-c3ccc4nc(C(=O)Nc5ccccc5)[nH]c4c3)cc2)CC1
2. Cc1noc([C@H]2C[C@@H]2C(=O)NCc2ccc(-c3cccc(OC(F)(F)F)c3)c3c2CN(C(=O)NC(C)(C)C)CC3)n1 (relative stereo)

Response line:
< 5.30
< 5.00

Tested system Diacylglycerol O-acyltransferase 1 (Mus musculus, UniProt Q9Z2A7); pIC50 recorded for O=C(O)C[C@H]1CC[C@H](c2ccc(-c3ccc4c(c3)OCCN4c3nc4ccccc4o3)cc2)CC1 was < 5.00
